# test target: SMARCA2 (Homo sapiens, UniProt P51531)
# Sequence (P51531 whole entry): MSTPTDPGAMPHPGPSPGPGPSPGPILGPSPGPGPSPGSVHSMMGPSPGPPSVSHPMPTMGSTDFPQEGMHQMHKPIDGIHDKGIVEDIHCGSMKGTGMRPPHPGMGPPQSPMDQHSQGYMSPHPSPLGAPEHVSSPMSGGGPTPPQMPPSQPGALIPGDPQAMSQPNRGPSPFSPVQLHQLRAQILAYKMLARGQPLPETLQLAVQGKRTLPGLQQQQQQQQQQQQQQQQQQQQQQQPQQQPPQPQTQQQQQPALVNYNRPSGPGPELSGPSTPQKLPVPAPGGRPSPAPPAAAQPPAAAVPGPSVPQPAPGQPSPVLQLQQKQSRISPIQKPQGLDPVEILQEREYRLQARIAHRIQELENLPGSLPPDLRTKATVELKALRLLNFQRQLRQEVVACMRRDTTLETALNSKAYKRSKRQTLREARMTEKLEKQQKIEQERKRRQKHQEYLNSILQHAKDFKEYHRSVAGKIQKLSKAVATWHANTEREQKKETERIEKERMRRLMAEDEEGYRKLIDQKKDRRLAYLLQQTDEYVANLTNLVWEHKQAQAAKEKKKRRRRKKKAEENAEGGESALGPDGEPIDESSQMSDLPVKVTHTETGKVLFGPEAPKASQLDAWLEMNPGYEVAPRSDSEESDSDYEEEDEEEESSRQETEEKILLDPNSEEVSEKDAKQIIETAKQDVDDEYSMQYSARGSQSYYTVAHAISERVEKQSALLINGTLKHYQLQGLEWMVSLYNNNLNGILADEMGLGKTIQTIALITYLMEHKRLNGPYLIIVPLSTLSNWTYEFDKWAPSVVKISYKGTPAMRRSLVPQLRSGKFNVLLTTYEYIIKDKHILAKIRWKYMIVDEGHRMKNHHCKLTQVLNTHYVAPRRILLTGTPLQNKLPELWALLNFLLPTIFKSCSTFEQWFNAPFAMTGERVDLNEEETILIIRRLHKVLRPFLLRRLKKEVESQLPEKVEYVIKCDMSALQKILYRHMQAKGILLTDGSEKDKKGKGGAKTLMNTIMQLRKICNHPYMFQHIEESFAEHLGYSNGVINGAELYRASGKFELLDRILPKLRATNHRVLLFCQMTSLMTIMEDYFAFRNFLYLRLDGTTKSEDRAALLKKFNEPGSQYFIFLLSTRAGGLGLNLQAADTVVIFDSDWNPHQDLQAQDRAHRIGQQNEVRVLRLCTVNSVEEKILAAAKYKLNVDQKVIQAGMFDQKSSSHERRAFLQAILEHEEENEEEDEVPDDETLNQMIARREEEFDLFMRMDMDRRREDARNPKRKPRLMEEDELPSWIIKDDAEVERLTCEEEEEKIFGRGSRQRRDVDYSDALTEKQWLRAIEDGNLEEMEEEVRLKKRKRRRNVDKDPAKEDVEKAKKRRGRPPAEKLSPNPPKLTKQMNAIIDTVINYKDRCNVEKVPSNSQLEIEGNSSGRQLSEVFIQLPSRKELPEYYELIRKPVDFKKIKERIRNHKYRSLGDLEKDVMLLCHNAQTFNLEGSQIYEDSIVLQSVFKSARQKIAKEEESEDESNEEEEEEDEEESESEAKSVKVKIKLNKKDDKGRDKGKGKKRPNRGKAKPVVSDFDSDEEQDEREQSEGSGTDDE
# method notes: SMARCA2 Western blot MV4-11 degradation
# Assay type: cell-based
# Parameters: SMARCA2 and SMARCA4 protein degradation in MV4-11 cells; endogenous in cells; host or cells: MV4-11
# assay conditions: MV4-11 cells
endpoint label: SMARCA2 MSD MV411 degradation 24 h: average Dmax %

{"columns": ["molecule", "test target", "result"],
 "data": [
  ["Cc1ncsc1-c1ccc([C@H](C)NC(=O)[C@@H]2C[C@@H](O)CN2C(=O)[C@@H](NC(=O)[C@H]2CC3(C2)C[C@H](N2CCC(c4cnc(N5C6CCC5CN(c5cc(-c7ccccc7O)nnc5N)C6)nc4)CC2)C3)C(C)(C)C)cc1 (single isomer, unassigned) [I-2]", "SMARCA2 (Homo sapiens, UniProt P51531)", "A (A (>90% degradation))"],
  ["Cc1ncsc1-c1ccc([C@H](C)NC(=O)[C@@H]2C[C@@H](O)CN2C(=O)[C@@H](NC(=O)[C@H]2CCC3(CC2)C[C@H](N2CCC(c4cnc(N5C6CCC5CN(c5cc(-c7ccccc7O)nnc5N)C6)nc4)CC2)C3)C(C)(C)C)cc1 (some centres unmarked) [I-16]", "SMARCA2 (Homo sapiens, UniProt P51531)", "A (A (>90% degradation))"]
]}

From: patent US12606568B2
